target_of_assay: m-calpain (Rattus norvegicus, UniProt Q07009)
Construct: m-calpain was purified from rat brain; from tissue; host or cells: rat brain
Sequence (Q07009 20-700 limits assumed): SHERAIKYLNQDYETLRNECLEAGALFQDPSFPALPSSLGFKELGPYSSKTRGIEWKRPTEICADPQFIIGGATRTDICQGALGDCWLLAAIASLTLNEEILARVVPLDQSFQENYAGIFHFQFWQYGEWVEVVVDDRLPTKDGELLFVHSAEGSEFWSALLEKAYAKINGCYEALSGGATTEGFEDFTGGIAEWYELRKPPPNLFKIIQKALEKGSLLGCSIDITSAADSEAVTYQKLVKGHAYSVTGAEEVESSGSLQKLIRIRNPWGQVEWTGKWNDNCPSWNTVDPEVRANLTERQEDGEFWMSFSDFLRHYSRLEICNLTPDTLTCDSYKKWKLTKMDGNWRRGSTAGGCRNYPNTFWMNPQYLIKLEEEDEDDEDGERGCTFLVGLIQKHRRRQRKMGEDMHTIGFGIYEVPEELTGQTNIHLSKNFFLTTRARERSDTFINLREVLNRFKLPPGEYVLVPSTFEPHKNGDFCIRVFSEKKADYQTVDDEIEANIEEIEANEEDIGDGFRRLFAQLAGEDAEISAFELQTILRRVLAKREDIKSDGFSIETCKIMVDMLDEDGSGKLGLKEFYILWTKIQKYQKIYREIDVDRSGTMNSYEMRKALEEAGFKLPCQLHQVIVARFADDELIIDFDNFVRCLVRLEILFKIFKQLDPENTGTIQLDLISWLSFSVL
Sequence (Q64537 whole entry partner): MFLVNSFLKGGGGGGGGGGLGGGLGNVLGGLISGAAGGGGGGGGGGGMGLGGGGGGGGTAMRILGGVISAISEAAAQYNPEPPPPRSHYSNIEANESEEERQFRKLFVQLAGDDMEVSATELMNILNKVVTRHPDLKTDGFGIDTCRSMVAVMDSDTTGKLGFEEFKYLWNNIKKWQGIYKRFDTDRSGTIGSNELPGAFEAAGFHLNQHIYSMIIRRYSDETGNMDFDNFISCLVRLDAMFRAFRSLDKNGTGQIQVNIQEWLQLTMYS
test_details: Thiol protease inhibitory activity, m-calpain purified from rat brain
Format: biochemical
recorded_conditions: Table 3
measurement_type: pIC50
Remember, pIC50 is on a log scale: it is -log10 of the molar concentration.

Exam item: # get_value(readout='pIC50', item= `CCCC[C@H](NC(=O)[C@H](CC(C)C)NC(=O)COc1cccc2ccccc12)C(=O)CSCc1ccco1` )
Marked response: 5.60

Exam item: # get_value(readout='pIC50', item= `CCCC[C@H](NC(=O)[C@H](CC(C)C)NC(=O)OCc1ccccc1F)C(=O)CSCc1ccco1` )
Marked response: 5.19

Exam item: # get_value(readout='pIC50', item= `CC(C)C[C@H](NC(=O)OCc1ccccn1)C(=O)N[C@@H](Cc1ccccc1)C(=O)CSCc1ccco1` )
Marked response: 5.27

Exam item: # get_value(readout='pIC50', item= `CSCC(=O)[C@H](CCc1ccccc1)NC(=O)[C@H](CC(C)C)NC(=O)OCc1ccccc1` )
Marked response: 4.89

###

Below is a list of entries, each paired with its recorded pIC50 value.
target_of_assay: papain (Carica papaya, UniProt P00784)
Sequence (P00784 134-345): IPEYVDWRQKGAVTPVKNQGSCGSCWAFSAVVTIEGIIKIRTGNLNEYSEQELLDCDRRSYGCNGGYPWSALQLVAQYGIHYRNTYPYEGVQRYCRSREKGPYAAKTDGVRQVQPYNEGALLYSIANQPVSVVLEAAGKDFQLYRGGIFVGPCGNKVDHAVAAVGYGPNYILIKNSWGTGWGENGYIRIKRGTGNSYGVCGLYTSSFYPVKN
test_details: Thiol protease inhibitory activity, papain (P-3125, Sigma)
Format: biochemical
recorded_conditions: Table 3; read-out: IC50 papain
Remember, pIC50 is on a log scale: it is -log10 of the molar concentration.

Exam item: # get_value(readout='pIC50', item= `CCCC[C@H](NC(=O)[C@H](CC(C)C)NC(=O)COc1cccc(F)c1)C(=O)CSCc1ccco1` )
Marked response: 5.89

Exam item: # get_value(readout='pIC50', item= `CCCC[C@H](NC(=O)[C@H](CC(C)C)NC(=O)c1ccc2ccccc2c1)C(=O)CSCc1ccco1` )
Marked response: 4.47

Exam item: # get_value(readout='pIC50', item= `CCCC[C@H](NC(=O)[C@H](CC(C)C)NC(=O)OCc1ccccc1)C(=O)CSCc1ccco1` )
Marked response: 5.96

Exam item: # get_value(readout='pIC50', item= `CC(C)C[C@H](NC(=O)COc1cccc2ccccc12)C(=O)N[C@@H](Cc1ccccc1)C(=O)CSCc1ccco1` )
Marked response: 5.04

Exam item: # get_value(readout='pIC50', item= `CCCC[C@H](NC(=O)[C@H](CC(C)C)NC(=O)Cc1csc2ccccc12)C(=O)CSCc1ccco1` )
Marked response: 6.44

Exam item: # get_value(readout='pIC50', item= `CCCC[C@H](NC(=O)[C@H](CC(C)C)NC(=O)OCc1ccccc1F)C(=O)CSCc1ccco1` )
Marked response: 4.66

###

target_of_assay: papain (Carica papaya, UniProt P00784)
test_details: Thiol protease inhibitory activity, papain (P-3125, Sigma)
Assay type: biochemical
recorded_conditions: Table 3; read-out: IC50 papain
Below is a list of entries, each paired with its recorded pIC50 value.
Remember, pIC50 is on a log scale: it is -log10 of the molar concentration.

// known answers, use as guide
CCCC[C@H](NC(=O)[C@H](CC(C)C)NC(=O)c1cccc2ccccc12)C(=O)CSCc1ccco1
4.33
CSCC(=O)[C@H](Cc1ccccc1)NC(=O)[C@H](CC(C)C)NC(=O)Cc1cccc2ccccc12
4.25
CCCC[C@H](NC(=O)[C@H](CC(C)C)NC(=O)COc1ccccc1C)C(=O)CSCc1ccco1
6.06
CCCC[C@H](NC(=O)[C@H](CC(C)C)NC(=O)COc1ccccc1Cl)C(=O)CSCc1ccco1
6.60
CC(C)C[C@H](NC(=O)C(C)Oc1ccccc1)C(=O)N[C@@H](Cc1ccccc1)C(=O)CSCc1ccco1 (some centres unmarked)
5.04
CCCC[C@H](NC(=O)[C@H](CC(C)C)NC(=O)COc1ccc(Cl)cc1C)C(=O)CSCc1ccco1
6.41

Exam item: Return pIC50 measured with papain (Carica papaya, UniProt P00784) given this compound: `CCCC[C@H](NC(=O)[C@H](CC(C)C)NC(=O)Cc1cccc2ccccc12)C(=O)CSCc1ccco1`
Marked response: 6.15

Exam item: Return pIC50 measured with papain (Carica papaya, UniProt P00784) given this compound: `CC(C)C[C@H](NC(=O)OCc1ccccc1)C(=O)N[C@@H](CC1CCCCC1)C(=O)CSCc1ccco1`
Marked response: 5.38

###

target_of_assay: papain (Carica papaya, UniProt P00784)
test_details: Thiol protease inhibitory activity, papain (P-3125, Sigma)
Format: biochemical
recorded_conditions: Table 3; read-out: IC50 papain
measurement_type: IC50 (µM)
The reply should be a number in µM, with the unit left off.

// known answers, use as guide
CCCC[C@H](NC(=O)[C@H](CC(C)C)NC(=O)COc1ccc(Cl)cc1Cl)C(=O)CSCc1ccco1 [42 (No. 92)]
4.5
CC(C)C[C@H](NC(=O)c1cc2ccccc2o1)C(=O)N[C@@H](Cc1ccccc1)C(=O)CSCc1ccco1 [174 (No. 382)]
12

Exam item: # get_value(readout='IC50', item= CC(C)C[C@H](NC(=O)OCc1ccccc1)C(=O)N[C@@H](CCC(=O)O)C(=O)CSCc1ccco1 [217 (No. 600)] )
Marked response: 26

###

target_of_assay: cathepsin L (Rattus norvegicus)
Sequence (P07154 114-334): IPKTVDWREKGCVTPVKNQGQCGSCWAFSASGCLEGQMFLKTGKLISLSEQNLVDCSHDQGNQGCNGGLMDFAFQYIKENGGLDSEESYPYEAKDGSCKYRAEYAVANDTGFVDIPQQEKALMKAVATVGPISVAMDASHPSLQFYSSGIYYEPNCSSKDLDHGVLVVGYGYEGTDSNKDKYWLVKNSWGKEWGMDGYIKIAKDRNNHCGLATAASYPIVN
Field: label. Allowed values: criterion met (IC50 < 0.2 µM) or criterion not met (IC50 >= 0.2 µM).

Reference set (3 entries):
CCCC[C@H](NC(=O)[C@H](CC(C)C)NC(=O)COc1ccc(Cl)cc1C)C(=O)CSCc1ccco1
criterion met
CCCC[C@H](NC(=O)[C@H](CC(C)C)NC(=O)COc1ccccc1)C(=O)CSCc1ccco1
criterion met
CCCC[C@H](NC(=O)[C@H](CC(C)C)NC(=O)COc1ccccc1)C(=O)C[S+]([O-])Cc1ccco1 (stereo partly drawn)
criterion met

Exam item: Lab note: confirm whether the reported IC50 for this molecule is below 0.2 µM, equality not counting. molecule: CC(C)C[C@H](NC(=O)COc1ccccc1)C(=O)NC(Cc1cccc2ccccc12)C(=O)CSCc1ccco1 (stereo partly drawn)
Marked response: criterion not met

Exam item: Lab note: confirm whether the reported IC50 for this molecule is below 0.2 µM, equality not counting. molecule: `CCCC[C@H](NC(=O)[C@H](CC(C)C)NC(=O)COc1ccc2ccccc2c1)C(=O)CSCc1ccco1`
Marked response: criterion not met

Exam item: Lab note: confirm whether the reported IC50 for this molecule is below 0.2 µM, equality not counting. molecule: `CCCC[C@H](NC(=O)[C@H](CC(C)C)NC(=O)c1ccccc1)C(=O)CSCc1ccco1`
Marked response: criterion not met

###

target_of_assay: m-calpain (Rattus norvegicus, UniProt Q07009)
Construct: m-calpain was purified from rat brain; from tissue; host or cells: rat brain
test_details: Thiol protease inhibitory activity, m-calpain purified from rat brain
Assay type: biochemical
recorded_conditions: Table 3
measurement_type: IC50 (µM)
The reply should be a number in µM, with the unit left off.

// known answers, use as guide
CCCC[C@H](NC(=O)[C@H](CC(C)C)NC(=O)Cc1csc2ccccc12)C(=O)CSCc1ccco1
5.5
CCCC[C@H](NC(=O)[C@H](CC(C)C)NC(=O)COc1ccccc1C)C(=O)CSCc1ccco1
22
CC(C)C[C@H](NC(=O)COc1ccccc1)C(=O)N[C@@H](Cc1ccccc1)C(=O)CSCc1ccco1
1.7
CCCC[C@H](NC(=O)[C@H](CC(C)C)NC(=O)OCc1ccccc1)C(=O)CSCc1ccco1
11
CC(C)C[C@H](NC(=O)COc1ccccc1)C(=O)N[C@@H](Cc1ccc(Cl)cc1)C(=O)CSCc1ccco1
7.8

Exam item: # get_value(readout='IC50', item= `CCCC[C@H](NC(=O)[C@H](CC(C)C)NC(=O)c1cccc2ccccc12)C(=O)CSCc1ccco1` )
Marked response: 12

Exam item: # get_value(readout='IC50', item= `CC(C)C[C@H](NC(=O)COc1ccccc1Cl)C(=O)N[C@@H](Cc1ccccc1)C(=O)CSCc1ccco1` )
Marked response: 20

###

Please consider the recorded IC50 for cathepsin L (Rattus norvegicus, UniProt P07154) in what follows.
The reply should be a number in nM, with the unit left off.

CC(C)C[C@H](NC(=O)COc1ccccc1)C(=O)N[C@@H](CCc1ccccc1)C(=O)CSCc1ccco1 [206 (No. 543)]
620

Exam item: # get_value(readout='IC50', item= CCCC[C@H](NC(=O)[C@H](CC(C)C)NC(=O)COc1cccc(Cl)c1Cl)C(=O)CSCc1ccco1 [41 (No. 91)] )
Marked response: 1100

Exam item: # get_value(readout='IC50', item= CCCC[C@H](NC(=O)[C@H](CC(C)C)NC(=O)OCc1ccccc1)C(=O)CSCc1ccco1 [22 (No. 48)] )
Marked response: 1300

Exam item: # get_value(readout='IC50', item= CCCC[C@H](NC(=O)[C@H](CC(C)C)NC(=O)Cc1ccc(F)cc1)C(=O)CSCc1ccco1 [31 (No. 69)] )
Marked response: 630
